- Test name: Antiplatelet aggregatory activity in […] assessed as inhibition of collagen-induced platelet aggregation by aggregometry
- Format: functional
- Test context: Homo sapiens, Plasma
Collected IC50 values appear next to each entry.

Molecule: CC(=O)Oc1ccccc1C(=O)O
Relation symbol: =
IC50 (µM): 75.4

Molecule: CCO[C@@H](c1ccc(O)c(OC)c1)[C@H](CO)Oc1c(OC)cc([C@@H]2CC(=O)c3c(O)cc(O)cc3O2)cc1OC
Relation symbol: >
IC50 (µM): 100

Molecule: CCO[C@H](c1ccc(O)c(OC)c1)[C@@H](CO)Oc1c(OC)cc(-c2cc(=O)c3c(O)cc(O)cc3o2)cc1OC
Relation symbol: =
IC50 (µM): 49.4

Molecule: COc1cc(/C=C/COC(=O)c2ccc(O)cc2)ccc1O[C@@H](COC(=O)c1ccc(O)cc1)[C@@H](O)c1cc(OC)c(O)c(OC)c1 (relative stereo)
Relation symbol: >
IC50 (µM): 100

Molecule: COc1cc(C(=O)C(COC(=O)c2ccc(O)cc2)Oc2c(OC)cc(/C=C/COC(=O)c3ccc(O)cc3)cc2OC)cc(OC)c1O (stereo not given)
Relation symbol: =
IC50 (µM): 67.5

* * *

# maps each entry to its IC50
- Test name: Antiplatelet aggregatory activity in […] assessed as inhibition of collagen-induced platelet aggregation by aggregometry
- Type: functional
- Test context: Homo sapiens, Plasma
Recorded endpoint: IC50 (µM)

Compound: COc1cc([C@@H](O)[C@H](COC(=O)c2ccc(O)cc2)Oc2c(OC)cc(/C=C/COC(=O)c3ccc(O)cc3)cc2OC)cc(OC)c1O (relative stereo)
Measured number: 26.9

Compound: CCO[C@@H](c1ccc(O)c(OC)c1)[C@@H](COC(=O)c1ccc(O)cc1)Oc1c(OC)cc([C@@H]2CC(=O)c3c(O)cc(O)cc3O2)cc1OC
Measured number: 43.3

Compound: COc1cc([C@H](O)[C@H](COC(=O)c2ccc(O)cc2)Oc2c(OC)cc(/C=C/COC(=O)c3ccc(O)cc3)cc2OC)ccc1O (relative stereo)
Measured number: 55.2

* * *

Reported viability at 24 h by item:
- Test name: Cytotoxicity against mouse RAW264.7 cells assessed as viable cells after 24 hrs by MTS assay
- Type: cell-based
- Design: concentration or dose not given beside the values
- Test context: read-out: Activity

Compound: COc1cc([C@H](O)[C@H](COC(=O)c2ccc(O)cc2)Oc2c(OC)cc(/C=C/COC(=O)c3ccc(O)cc3)cc2OC)ccc1O (relative stereo)
viability at 24 h: > 85%

Compound: COc1cc([C@@H](O)[C@H](COC(=O)c2ccc(O)cc2)Oc2c(OC)cc(/C=C/COC(=O)c3ccc(O)cc3)cc2OC)cc(OC)c1O (relative stereo)
viability at 24 h: > 85%

Compound: COc1cc(C(=O)C(COC(=O)c2ccc(O)cc2)Oc2c(OC)cc(/C=C/COC(=O)c3ccc(O)cc3)cc2OC)cc(OC)c1O (stereo unspecified)
viability at 24 h: > 85%

Compound: CCO[C@H](c1ccc(O)c(OC)c1)[C@@H](CO)Oc1c(OC)cc(-c2cc(=O)c3c(O)cc(O)cc3o2)cc1OC [QUIQUELIGNAN C]
viability at 24 h: > 85%

Compound: COc1cc(/C=C/COC(=O)c2ccc(O)cc2)ccc1O[C@@H](COC(=O)c1ccc(O)cc1)[C@@H](O)c1cc(OC)c(O)c(OC)c1 (relative stereo)
viability at 24 h: > 85%

Compound: CCO[C@@H](c1ccc(O)c(OC)c1)[C@@H](COC(=O)c1ccc(O)cc1)Oc1c(OC)cc([C@@H]2CC(=O)c3c(O)cc(O)cc3O2)cc1OC [QUIQUELIGNAN B]
viability at 24 h: > 85%
